Where these numbers come from: patent US20210238260

# System tested: Antithrombin III (plasma purified human AT-III, Molecular Innovations)
# Assay info: AT-III/UFH inhibition: FIXa variant incubated with AT-III dilutions in excess unfractionated heparin, residual cleavage of Mesyl-D-CHG-Gly-Arg-AMC; K0.5 = AT-III concentration for 50% inhibition (IC50)
Result type: K0.5

Q: K0.5 for FIXa-R318Y/R403E/E410N (protein) chain 1: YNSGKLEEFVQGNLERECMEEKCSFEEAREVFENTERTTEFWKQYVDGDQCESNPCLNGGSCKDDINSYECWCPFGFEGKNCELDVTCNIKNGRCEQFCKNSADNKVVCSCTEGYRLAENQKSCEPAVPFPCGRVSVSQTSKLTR chain 2: VVGGEDAKPGQFPWQVVLNGKVDAFCGGSIVNEKWIVTAAHCVETGVKITVVAGEHNIEETEHTEQKRNVIRIIPHHNYNAAINKYNHDIALLELDEPLVLNSYVTPICIADKEYTNIFLKFGSGYVSGWGRVFHKGYSALVLQYLRVPLVDRATCLRSTKFTIYNNMFCAGFHEGGRDSCQGDSGGPHVTEVEGTSFLTGIISWGEECAMKGKYGIYTKVSEYVNWIKNKTKLT ?
A: 7.07 µM
